- subject.of.test: Androgen Receptor (Homo sapiens)
- Construct: endogenous in cells; host or cells: VCaP cells
- method.description: Androgen Receptor ELISA assay (PathScan AR ELISA) in VCaP cells: AR degradation, Dmax and DC50
- Format: cell-based
- condition.label: read-out: VCaP DC50; VCaP cells; Table 35
observable: DC50

Input: Report DC50 for Cc1ncsc1-c1ccc([C@H](C)NC(=O)[C@@H]2C[C@@H](O)CN2C(=O)[C@H](C(C)C)n2cc(OCCCOCCCCCOc3ccc(N4C(=S)N(c5ccc(C#N)c(C(F)(F)F)c5)C(=O)C4(C)C)cc3)cn2)cc1 tested on Androgen Receptor (Homo sapiens).
Output: > 501 nM

Input: Given the entry Cc1ncsc1-c1ccc([C@H](C)NC(=O)[C@@H]2C[C@@H](O)CN2C(=O)[C@@H](NC(=O)COC[C@H](O)CCOc2ccc(-c3ccc(N4C(=S)N(c5ccc(C#N)c(C(F)(F)F)c5)C(=O)C4(C)C)cc3)cc2)C(C)(C)C)cc1 , what DC50 was observed with Androgen Receptor (Homo sapiens)?
Output: < 50 nM

Input: Short answer please: DC50, Androgen Receptor (Homo sapiens), entry Cc1ncsc1-c1ccc(CNC(=O)[C@@H]2C[C@@H](O)CN2C(=O)[C@@H](NC(=O)COC[C@H]2C[C@H](Oc3ccc(-c4ccc(N5C(=S)N(c6ccc(C#N)c(C(F)(F)F)c6)C(=O)C5(C)C)cc4)cc3)C2)C(C)(C)C)cc1
Output: < 50 nM

----------
# Dmax annotations
- subject.of.test: Androgen Receptor (Homo sapiens)
- Construct: endogenous in cells; host or cells: VCaP cells
- method.description: Androgen Receptor ELISA assay (PathScan AR ELISA) in VCaP cells: AR degradation, Dmax and DC50
- Type: cell-based
- condition.label: VCaP, VCaP cells; Table 35; read-out: VCaP Dmax (%)

[[record]]
molecule = "CC(C)(C)[C@H](NC(=O)COCCCCCNc1ccc(C(=O)N[C@H]2C(C)(C)[C@H](Oc3ccc(C#N)c(Cl)c3)C2(C)C)cc1)C(=O)N1C[C@H](O)C[C@H]1C(=O)NCc1ccc(C#N)cc1"
result = "> 71%"

[[record]]
molecule = "Cc1ncsc1-c1ccc([C@H](C)NC(=O)[C@@H]2C[C@@H](O)CN2C(=O)[C@@H](NC(=O)COc2ccc(OC3CCC(Oc4ccc(C(=O)N[C@H]5C(C)(C)[C@H](Oc6ccc(C#N)c(Cl)c6)C5(C)C)cc4)CC3)nc2)C(C)(C)C)cc1 (some centres unmarked)"
result = "51 to 70%"

[[record]]
molecule = "CC(C)(C)[C@H](NC(=O)COCCCCCNc1ccc(C(=O)N[C@H]2C(C)(C)[C@H](Oc3ccc(C#N)c(Cl)c3)C2(C)C)cc1)C(=O)N1C[C@H](O)C[C@H]1C(=O)NCc1ccc(C2=CCNCC2)cc1"
result = "26 to 50%"


Input: // query Dmax value for entry Cc1ncsc1-c1ccc(CNC(=O)[C@@H]2C[C@H](O)CN2C(=O)[C@@H](NC(=O)COCCOc2ccc(-c3ccc(C(=O)N[C@H]4C(C)(C)[C@H](Oc5ccc(C#N)c(Cl)c5)C4(C)C)cc3)cc2)C(C)(C)C)cc1
Output: < 25%

Input: I am curious: what Dmax value has been reported for CC(C)(C)[C@H](NC(=O)COCCCCNc1ccc(C(=O)N[C@H]2C(C)(C)[C@H](Oc3ccc(C#N)c(Cl)c3)C2(C)C)cc1)C(=O)N1C[C@H](O)C[C@H]1C(=O)NCc1ccc(C#N)cc1 ?
Output: 51 to 70%

----------
- subject.of.test: Androgen Receptor (Homo sapiens, UniProt P10275)
- Construct: endogenous in cells; host or cells: VCaP cells
- method.description: Androgen Receptor ELISA assay (PathScan AR ELISA) in VCaP cells: AR degradation, Dmax and DC50
- Type: cell-based
- condition.label: VCaP cells; Table 36; read-out: VCaP DC50
observable: DC50

The following compounds have reported results that may help.
[[record]]
compound = "Cc1ncsc1-c1ccc([C@H](C)NC(=O)C2C[C@@H](O)CN2C(=O)[C@@H](NC(=O)CCCC2(N3CCN(c4ccc(C(=O)N[C@H]5C(C)(C)[C@H](Oc6ccc(C#N)c(Cl)c6)C5(C)C)cn4)CC3)COC2)C(C)(C)C)cc1 (stereo partly shown) [Example 803]"
observable = "DC50"
result = "> 501 nM"

[[record]]
compound = "Cc1ncsc1-c1ccc([C@H](C)NC(=O)C2C[C@@H](O)CN2C(=O)C(NC(=O)COC(C)(C)CN2CCN(c3ccc(C(=O)NC4C(C)(C)C(Oc5ccc(C#N)c(Cl)c5)C4(C)C)cn3)CC2)C(C)(C)C)cc1 (stereo partly shown) [Example 815]"
observable = "DC50"
result = "< 50 nM"

[[record]]
compound = "Cc1ncsc1-c1ccc([C@H](C)NC(=O)[C@@H]2C[C@@H](O)CN2C(=O)[C@@H](NC(=O)CN2CCN(CCCOCc3cc(C(=O)N[C@@H](C)Cn4ccc(-c5ccc(C#N)c(C(F)(F)F)c5)n4)n[nH]3)CC2)C(C)(C)C)cc1 [Example 766]"
observable = "DC50"
result = "> 501 nM"


Input: Which DC50 reading was recorded for the compound CC(C)[C@@H](C(=O)N1C[C@H](O)C[C@H]1C(=O)NCc1ccc(C#N)cc1)N1Cc2ccc(N3CCN(CCCc4ccc(C(=O)N[C@H]5C(C)(C)[C@H](Oc6ccc(C#N)c(C(F)(F)F)c6)C5(C)C)cc4)CC3)cc2C1=O [Example 772] ?
Output: > 501 nM

----------
- subject.of.test: Androgen Receptor (Homo sapiens)
- Construct: endogenous in cells; host or cells: VCaP cells
- Sequence (P10275 1-920): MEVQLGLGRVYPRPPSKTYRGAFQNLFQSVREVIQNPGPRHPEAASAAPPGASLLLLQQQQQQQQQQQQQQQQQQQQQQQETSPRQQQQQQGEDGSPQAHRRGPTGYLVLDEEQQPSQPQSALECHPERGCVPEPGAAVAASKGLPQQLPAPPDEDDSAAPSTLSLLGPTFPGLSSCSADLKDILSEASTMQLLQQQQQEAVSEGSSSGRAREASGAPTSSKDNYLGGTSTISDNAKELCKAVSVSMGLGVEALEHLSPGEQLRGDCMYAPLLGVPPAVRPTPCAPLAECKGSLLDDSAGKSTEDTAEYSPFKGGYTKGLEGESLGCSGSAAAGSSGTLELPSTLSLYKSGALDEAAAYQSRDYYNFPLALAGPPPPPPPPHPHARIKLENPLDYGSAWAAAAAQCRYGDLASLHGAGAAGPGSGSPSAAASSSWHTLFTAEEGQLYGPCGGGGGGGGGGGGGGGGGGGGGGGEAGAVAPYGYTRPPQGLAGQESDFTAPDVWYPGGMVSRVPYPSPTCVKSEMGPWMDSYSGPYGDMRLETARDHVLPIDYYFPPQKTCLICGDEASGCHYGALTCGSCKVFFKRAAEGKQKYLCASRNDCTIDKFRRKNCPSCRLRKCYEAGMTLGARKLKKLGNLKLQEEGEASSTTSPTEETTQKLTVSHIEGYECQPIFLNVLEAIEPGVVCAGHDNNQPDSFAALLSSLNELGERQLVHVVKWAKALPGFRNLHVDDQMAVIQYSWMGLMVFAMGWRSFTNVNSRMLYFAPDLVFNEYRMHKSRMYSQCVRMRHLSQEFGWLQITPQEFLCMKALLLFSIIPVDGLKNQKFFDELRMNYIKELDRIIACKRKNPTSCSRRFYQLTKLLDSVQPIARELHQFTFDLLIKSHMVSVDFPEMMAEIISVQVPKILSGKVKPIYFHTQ
- method.description: Androgen Receptor ELISA assay (PathScan AR ELISA) in VCaP cells: AR degradation, Dmax and DC50
- Type: cell-based
- condition.label: VCaP, read-out: VCaP Dmax (%)
- Method: 1. Androgen Receptor ELISA Assay. The protocols used with VCaP cells are described below. The androgen receptor ELISA assay was performed using PathScan AR ELISA (Cell Signaling Catalog #12850) according to the following assay steps: […]
Measured Dmax values are reported for all entries that follow.

Below: 6 molecules and their reported Dmax.
[[record]]
chemical_string = "Cc1ncsc1-c1ccc([C@H](C)NC(=O)[C@@H]2C[C@@H](O)CN2C(=O)[C@@H](C(C)C)n2cc(OCCCOCCCCCOc3ccc(N4C(=S)N(c5ccc(C#N)c(C(F)(F)F)c5)C(=O)C4(C)C)cc3)cn2)nc1"
result = "< 25%"

[[record]]
chemical_string = "Cc1ncsc1-c1ccc([C@H](C)NC(=O)[C@@H]2C[C@@H](O)CN2C(=O)[C@@H](NC(=O)COCCN2C[C@@H]3C[C@H]2CN3c2ccc(C(=O)N[C@H]3C(C)(C)[C@H](Oc4ccc(C#N)c(Cl)c4)C3(C)C)cn2)C(C)(C)C)cc1"
result = "> 71%"

[[record]]
chemical_string = "Cc1cc(OCCCCOCC(=O)N[C@H](C(=O)N2C[C@H](O)C[C@H]2C(=O)NCc2ccc(-c3scnc3C)cc2)C(C)(C)C)ccc1-c1ccc(N2C(=S)N(c3ccc(C#N)c(C(F)(F)F)c3)C(=O)C2(C)C)cc1"
result = "> 71%"

[[record]]
chemical_string = "Cc1ncsc1-c1ccc([C@H](C)NC(=O)[C@H]2C[C@H](O)CN2C(=O)[C@@H](NC(=O)CN2C3CCC2CN(CCCCc2ccc(C(=O)N[C@H]4C(C)(C)[C@H](Oc5ccc(C#N)c(Cl)c5)C4(C)C)cc2)C3)C(C)(C)C)cc1"
result = "< 25%"

[[record]]
chemical_string = "Cc1ncsc1-c1ccc(CNC(=O)[C@@H]2C[C@@H](O)CN2C(=O)[C@@H](NC(=O)COCCCOCCCCCOc2ccc(N3C(=S)N(c4ccc(C#N)c(C(F)(F)F)c4)C(=O)C3(C)C)cc2)C(C)(C)C)nc1"
result = "< 25%"

[[record]]
chemical_string = "CC(C)(C)[C@H](NC(=O)COCCCCOc1ccc(-c2ccc(N3C(=S)N(c4cc(Cl)c(C#N)cc4F)C(=O)C3(C)C)cc2)cc1)C(=O)N1C[C@H](O)C[C@H]1C(=O)NCc1ccc(-c2cnco2)cc1"
result = "< 25%"


Input: Could you tell me which Dmax is on file for Cc1ncsc1-c1ccc([C@H](C)NC(=O)[C@@H]2C[C@@H](O)CN2C(=O)[C@@H](NC(=O)CN2CCC(O[C@H]3C[C@H](Nc4ccc(C(=O)N[C@H]5C(C)(C)[C@H](Oc6ccc(C#N)c(Cl)c6)C5(C)C)cn4)C3)CC2)C(C)(C)C)cc1 ?
Output: > 71%

Input: What measured Dmax goes with Cc1ncsc1-c1ccc(CNC(=O)[C@@H]2C[C@@H](O)CN2C(=O)[C@@H](NC(=O)COCCCOCc2ccc(-c3ccc(N4C(=S)N(c5ccc(C#N)c(C(F)(F)F)c5)C(=O)C4(C)C)cc3)cc2)C(C)(C)C)cc1 ?
Output: 51 to 70%

Input: Which measured Dmax value corresponds to CC(C)(C)[C@H](NC(=O)COCCCOCCCCOc1ccc(N2C(=S)N(c3ccc(C#N)c(Cl)c3)C(=O)C2(C)C)cc1F)C(=O)N1C[C@H](O)C[C@H]1C(=O)NCc1ccc(-c2cnco2)cc1 ?
Output: > 71%

Input: # query: Dmax of entry Cc1ncsc1-c1ccc([C@H](C)NC(=O)[C@@H]2C[C@@H](O)CN2C(=O)[C@@H](NC(=O)CN2CCN(CCCc3ccc(C(=O)N[C@H]4C(C)(C)[C@H](Oc5ccc(C#N)c(Cl)c5)C4(C)C)cc3)[C@H](CO)C2)C(C)(C)C)cc1
Output: > 71%

Input: Entry CO[C@@H]1C[C@@H](C(=O)N[C@@H](C)c2ccc(-c3scnc3C)cc2)N(C(=O)[C@@H](NC(=O)CN2CCN(CCCc3ccc(C(=O)N[C@H]4C(C)(C)[C@H](Oc5ccc(C#N)c(C(F)(F)F)c5)C4(C)C)cc3)CC2)C(C)(C)C)C1 : reported Dmax = ?
Output: < 25%

Input: What measured Dmax goes with Cc1ncsc1-c1ccc([C@H](C)NC(=O)[C@@H]2C[C@@H](O)CN2C(=O)[C@@H](C(C)C)n2cc(OCCCOCCCn3cnc(-c4ccc(N5C(=S)N(c6ccc(C#N)c(C(F)(F)F)c6)C(=O)C5(C)C)cc4)c3)cn2)cc1 ?
Output: < 25%

Input: Give the measured Dmax of Cc1ncsc1-c1ccc([C@H](C)NC(=O)[C@@H]2C[C@@H](O)CN2C(=O)[C@@H](C(C)C)n2cc(Oc3cccc(OCCCCCOc4ccc(N5C(=S)N(c6ccc(C#N)c(C(F)(F)F)c6)C(=O)C5(C)C)cc4)c3)cn2)nc1 .
Output: < 25%

Input: I would be grateful if you could share the reported Dmax for Cc1ncsc1-c1ccc(CNC(=O)[C@@H]2C[C@@H](O)CN2C(=O)[C@@H](NC(=O)COCC2CCN(c3ccc(-c4ccc(N5C(=S)N(c6ccc(C#N)c(C(F)(F)F)c6)C(=O)C5(C)C)cc4)cn3)CC2)C(C)(C)C)cc1 .
Output: 51 to 70%

Input: Please report the recorded Dmax for Cc1ncsc1-c1ccc(CNC(=O)[C@@H]2C[C@@H](O)CN2C(=O)[C@@H](NC(=O)COCCCOCCCCOc2ccc(N3C(=S)N(c4ccc(C#N)c(C(F)(F)F)c4)C(=O)C3(C)C)cn2)C(C)(C)C)cc1 .
Output: 51 to 70%

Input: Request the reported Dmax associated with Cc1ncoc1-c1ccc(CNC(=O)[C@@H]2C[C@@H](O)CN2C(=O)[C@@H](NC(=O)COCCCNC(=O)c2ccc(-c3ccc(N4C(=S)N(c5ccc(C#N)c(C(F)(F)F)c5)C(=O)C4(C)C)cc3)cc2)C(C)(C)C)cc1
Output: 51 to 70%
